test system: HOP-62 NSCLC; assay: NCI tumour cell line growth inhibition, 48 h
propertyLabel: TGI

Please state recorded TGI (tested on HOP-62 NSCLC) of CCOC(=O)NC(Nc1ccc([N+](=O)[O-])cc1)(C(F)(F)F)C(F)(F)F
> 100 µM

Please state recorded TGI (tested on HOP-62 NSCLC) of C=CCOc1ccc(C2C(C(=O)OCC)C(=O)CC(C)(O)C2C(=O)OCC)cc1OC (stereo not drawn)
> 100 µM

Please state recorded TGI (tested on HOP-62 NSCLC) of N#Cc1c(Cl)cc(Cl)n2c1nc1ccccc12
51.7 µM

* * *

test system: DLD-1 colon; assay: NCI tumour cell line growth inhibition, 48 h
propertyLabel: TGI

Tell me the measured TGI of CCOC(=O)NC(=O)c1cn(CCCOC(=O)CCCCCCCCCCC(=O)OCCCn2cc(C(=O)NC(=O)OCC)c(=O)[nH]c2=O)c(=O)[nH]c1=O , please.
> 100 µM

Tell me the measured TGI of N#Cc1cccnc1Cl , please.
> 100 µM

Tell me the measured TGI of C/C(CC(=O)NCCc1ccccc1)=N\NC(=O)C[n+]1ccccc1 , please.
> 100 µM

Tell me the measured TGI of O=C(O)[C@H](NS(=O)(=O)c1ccc([N+](=O)[O-])cc1)c1ccccc1 , please.
> 100 µM

Tell me the measured TGI of c1ccc(C2Nc3ccccc3C3OCCCC23)cc1 (stereo not given) , please.
> 100 µM

Tell me the measured TGI of CCCCCCCCCCCC(=O)OCC1OC(OC)C(NC(=O)N(CCCl)N=O)C(O)C1O (stereo not given) , please.
52.3 µM

Tell me the measured TGI of O=C1[C@@H]2C(c3ccccc3F)=NO[C@@H]2C(=O)N1c1ccc(Cc2ccc(N3C(=O)[C@H]4C(c5ccccc5F)=NO[C@H]4C3=O)cc2)cc1 , please.
> 100 µM

Tell me the measured TGI of O=C1CSC(/C(=N/Nc2ccccc2)c2nc3ccccc3[nH]2)=N1 , please.
> 100 µM

Tell me the measured TGI of NC(=O)NCc1c(C(N)=O)ncn1Cc1ccccc1 , please.
> 100 µM

Tell me the measured TGI of Cc1ccc(S(=O)(=O)C(C#N)c2nc3ccccc3nc2-n2ccnc2)cc1 (stereo not given) , please.
> 100 µM

Tell me the measured TGI of O=C(c1ccccc1)C1OC12C(=O)Nc1ccccc12 (stereo not given) , please.
> 100 µM

Tell me the measured TGI of CSC(C1c2ccccc2N(c2ccc(C)cc2)c2[nH]c(=O)n(C)c(=O)c21)S(=O)(=O)c1ccc(C)cc1 (stereo not given) , please.
> 100 µM

Tell me the measured TGI of COc1cc2c3c(c1OC)C1(C=CC(=O)C=C1)C[C@H]3N(C)CC2 , please.
> 100 µM

Tell me the measured TGI of O=C1CCC(O)=C1N=Nc1ccccc1 , please.
> 100 µM

Tell me the measured TGI of COc1ccc(C2COc3cc(O)c(O)cc3C2)cc1 (stereo not given) , please.
25.3 µM

* * *

system: HCT-15 colon; assay: NCI tumour cell line growth inhibition, 48 h; in the data active = GI50 below about 0.43 µM; inactive = the rest
Please answer using one outcome listed in active, inactive

// return assay outcome for O=C1Nc2ccc(F)cc2/C1=C/c1ccc[nH]1
inactive

// return assay outcome for CN(C)c1cc[c]([Sn]([c]2ccc(N(C)C)cc2)([c]2ccc(N(C)C)cc2)[c]2ccc(N(C)C)cc2)cc1
inactive

// return assay outcome for CN(CCC#N)c1ccc(/C=C(\C#N)c2ccc(Br)cc2)cc1
inactive

// return assay outcome for CCCCCCCCCCCCCCCCCCOc1ccccc1CC(=O)OCC[N+]1(C)CCCC1
inactive

// return assay outcome for C#Cc1c(I)n(C2OC(CO[Si](C)(C)C(C)(C)C)C3OC(C)(C)OC32)c(=O)[nH]c1=O (configuration not stated)
inactive

// return assay outcome for O=c1cc(NC2CCN(CCCc3ccccc3)CC2)c2cc(Cl)ccc2o1
inactive

// return assay outcome for CC1=C(C(=O)Nc2ccc(F)c(Cl)c2)C(c2cccc(O)c2)NC(=O)N1 (configuration not stated)
inactive

// return assay outcome for Cc1cc(C(C)(C)CC(C)(C)C)ccc1OCCOCC[N+](C)(C)Cc1ccccc1
inactive

// return assay outcome for Cc1ncc(CCCN(C)C)cc1Nc1ncc2c(n1)-c1ccc(C(F)(F)F)cc1NC(=S)C2
active

// return assay outcome for Cc1ccc2[nH]c(O)c(N=Nc3ccc(S(N)(=O)=O)cc3)c2c1
inactive

// return assay outcome for CCOc1cc(C(C)(C)C)ccc1C1=N[C@@](C)(c2ccc(Cl)cc2)[C@@](C)(c2ccc(Cl)cc2)N1C(=O)N1CCN(CCCS(C)(=O)=O)CC1
inactive

// return assay outcome for COc1cc(C(=O)c2cc(C)c3[nH]c4ccc(C)cc4c3c2C)cc(OC)c1OC
active

* * *

system: CCRF-CEM leukemia; assay: NCI tumour cell line growth inhibition, 48 h; in the data active = GI50 below about 0.43 µM; inactive = the rest
Please answer using one outcome listed in active, inactive

// return assay outcome for O=c1cccc(C#CC#CC2=CCCCC2)o1
inactive

// return assay outcome for COc1ccc(-c2nn(-c3ccc(NC(=O)Nc4cc(C(F)(F)F)cc(C(F)(F)F)c4)cc3)cc2-c2ccncc2)cc1Cl
inactive

// return assay outcome for O=c1cc(NC2CCN(CCCc3ccccc3)CC2)c2cc(Cl)ccc2o1
inactive

// return assay outcome for O=S(=O)(Nc1cc(Sc2cccc3cccnc23)c(O)c2ccccc12)c1ccccc1
active

// return assay outcome for Nc1nc(F)nc2c1ncn2C1OC(CO)C(O)C1O (stereo not given)
inactive

* * *

Could you please report measured TGI for the items listed next?
system: HOP-62 NSCLC; assay: NCI tumour cell line growth inhibition, 48 h
Dear colleague, please return just the value in µM, with no unit written.

Tell me the measured TGI of O=C1c2cccnc2-c2nccc3c2c1nc1cc(Br)ccc13 , please.
0.362

Tell me the measured TGI of C=C1C(=O)C=C[C@]2(C)CC[C@H]3C(=C)C(=O)O[C@@H]3[C@@H]12 , please.
6.36

Tell me the measured TGI of CC(C)(C)C(=O)CC1=Nc2ccccc2SC1(O)CC(=O)C(C)(C)C (configuration not stated) , please.
76.2

Tell me the measured TGI of CCN1CCC(O)(/C=C/c2ccc(C)cc2C)C(C(=O)/C=C/c2ccc(C)cc2C)C1 (configuration not stated) , please.
8.54

Tell me the measured TGI of O=C1CSC(c2ccc(Cl)cc2Cl)N1c1ccc(F)cc1 (configuration not stated) , please.
32.3

Tell me the measured TGI of O=C1C(=Cc2ccccc2O)N=C(c2ccccc2)N1n1c(-c2ccccc2)nc2ccccc2c1=O , please.
96.8

Tell me the measured TGI of COc1cccc(C#Cc2ccccc2C#CCCCCO)c1 , please.
34.3

Tell me the measured TGI of CCC/C(Cl)=N\OC(=O)Nc1ccc(OC(F)(F)F)cc1 , please.
35.5

Tell me the measured TGI of CCn1c(-c2ccc(OC(C)=O)cc2)c(C)c2cc(OC(C)=O)ccc21 , please.
47.7

Tell me the measured TGI of C=CC/C=C/C/C=C/CCCCCCCc1cccc(O)c1C(=O)O , please.
67.5

* * *

Could you please report measured TGI for the items listed next?
test system: MDA-MB-435; test: NCI tumour cell line growth inhibition, 48 h

Please state recorded TGI (tested on MDA-MB-435) of CC(C)C[C@H](NC(=O)/C=C/Cn1ccc2ccccc2c1=O)B(O)O
2.96 µM

Please state recorded TGI (tested on MDA-MB-435) of O=c1cccc(C#CC#CC2=CCCCC2)o1
10.4 µM

Please state recorded TGI (tested on MDA-MB-435) of COc1ccc(NS(=O)(=O)c2ccc(NC(NC(=O)CC(C)C)(C(F)(F)F)C(F)(F)F)cc2)nn1
> 100 µM

Please state recorded TGI (tested on MDA-MB-435) of O=C(O)C1C(Br)(c2ccccc2)C1(Br)c1ccccc1 (stereo not given)
> 100 µM

Please state recorded TGI (tested on MDA-MB-435) of CCC(=O)ONC(=O)Cn1ccc([N+](=O)[O-])n1
> 100 µM

Please state recorded TGI (tested on MDA-MB-435) of Nc1nc(Cl)cc(NCC2(CO)CCCC2)n1
> 100 µM

Please state recorded TGI (tested on MDA-MB-435) of CCN1CCC(O)(/C=C/c2ccc(C)cc2C)C(C(=O)/C=C/c2ccc(C)cc2C)C1 (stereo not given)
7.95 µM

Please state recorded TGI (tested on MDA-MB-435) of [N-]=[N+]=NC1=C(c2ccccn2)C(=O)c2cccc3cccc1c23
> 100 µM

Please state recorded TGI (tested on MDA-MB-435) of Cc1ccc2c(c1)C(=O)C1(C2)Cc2cccc(C)c2C1=O (stereo not given)
> 100 µM

Please state recorded TGI (tested on MDA-MB-435) of CCCCCCCCCCCCCCCCCCOc1ccccc1CC(=O)OCC[N+]1(C)CCCC1
3.31 µM

Please state recorded TGI (tested on MDA-MB-435) of CC(C)=CCNc1ncnc2c1ncn2CCC#N
> 100 µM

Please state recorded TGI (tested on MDA-MB-435) of C=CCOc1ccc(C2(O)c3ccccc3C3=NCCCN32)cc1 (stereo not given)
> 85.6 µM

Please state recorded TGI (tested on MDA-MB-435) of CC(C)CC(O)P(=O)(O)O (stereo not given)
> 100 µM

Please state recorded TGI (tested on MDA-MB-435) of CC1=NNC(=O)C1C(CC(=O)c1c[nH]c2ccccc12)C(=O)O (stereo not given)
> 100 µM

Please state recorded TGI (tested on MDA-MB-435) of CCC1(C)C=Cc2c(cc(O)c3c(=O)c4ccccc4n(C)c23)O1 (stereo not given)
> 10 µM

Please state recorded TGI (tested on MDA-MB-435) of CCNC(=O)Nc1cccc(NC(=O)NCC)n1
> 100 µM

Please state recorded TGI (tested on MDA-MB-435) of CCOC(=O)NC(Nc1ccc([N+](=O)[O-])cc1)(C(F)(F)F)C(F)(F)F
49.1 µM

Please state recorded TGI (tested on MDA-MB-435) of CC1=C(O)C(=O)C=C2C1=CC=C1[C@@]2(C)CC[C@@]2(C)[C@@H]3C[C@](C)(C(=O)O)CC[C@]3(C)CC[C@]12C
0.157 µM

Please state recorded TGI (tested on MDA-MB-435) of C=CCOc1ccc(C2C(C(=O)OCC)C(=O)CC(C)(O)C2C(=O)OCC)cc1OC (stereo not given)
> 100 µM

Please state recorded TGI (tested on MDA-MB-435) of Oc1cccc(-c2nc3cc(F)ccc3s2)c1
58.5 µM
